assay: The compound was tested for toxicity against human ovarian cancer cell line SK-OV-3; format: functional, cell-based; settings: cancer cell lines
Readout: EC50 (µM)

                                   compound  units_text  modifier_sign  assay_result
0  CN[C@@H](C)C(=O)N[C@H](C(=O)N1CCC[C@H]1C(=O)N[C@@H]1CCCc2ccccc21)C1CCCCC1          µM              =           1.3
1  CNC(C)C(=O)N[C@H](C(=O)N1CCC[C@H]1C(=O)N[C@@H]1CCCc2ccccc21)C(C)(C)C (single isomer, unassigned)          µM              >            50
2  CN[C@@H](C)C(=O)N[C@H](C(=O)N1CCC[C@H]1C(=O)N[C@H]1CCCc2ccccc21)C(C)(C)C          µM              =           5.6
3  C[C@@H](C(=O)N[C@H](C(=O)N1CCC[C@H]1C(=O)N[C@@H]1CCCc2ccccc21)C1CCCCC1)N(C)C          µM              >            25
4  CN[C@@H](C)C(=O)N[C@H](C(=O)N1CCC[C@H]1C(=O)N[C@@H]1CCCc2ccccc21)C(C)(C)C          µM              =           1.5

---

Overview of recorded Kd for various molecules
molecular target: E3 ubiquitin-protein ligase XIAP (Homo sapiens); assay: Binding affinity to the BIR3 domain of X-linked IAP
Numbered stars: 1 amine (or outer) side, 2 acyl side, 3 side chain; on linkers, the order of the positions; unused ones are H or OH. Square brackets hold non-standard residues; d marks the D form. Peptide text beside a SMILES is read from it. 1Nal = N[C@@H](Cc1cccc2ccccc12)C(=O)O; X1 = O=C([C@@H]1CC(O)CN1[*:1])[*:2]; Aib = CC(C)(N)C(=O)O

Molecule	Modifier sign	Kd, nM
CN[C@@H](C)C(=O)N[C@H](C(=O)N1CCC[C@H]1C(=O)NC1c2ccccc2-c2ccccc21)C(C)(C)C	=	40
CC(C)[C@H](NC(=O)[C@H](C)N)C(=O)N1CC(O)C[C@H]1C(=O)N[C@@H](Cc1ccccc1)C(=O)N[C@@H](Cc1ccc(O)cc1)C(=O)O (stereo partly specified) (H-AV[X1]FY-OH)	=	800
C[C@H](N)C(=O)NC(C)(C)C(=O)N1CCC[C@H]1C(=O)N[C@@H](Cc1ccccc1)C(=O)N[C@@H](Cc1ccc(O)cc1)C(=O)O (H-A[Aib]PFY-OH)	>	20000
CC(C(=O)N[C@H](C(=O)N1C[C@@H](Oc2ccccc2)C[C@H]1C(=O)NC1CCCc2ccccc21)C(C)(C)C)N(C)C (stereo partly specified)	>	1000
CN[C@@H](C)C(=O)N[C@H](C(=O)N1CCC[C@H]1C(=O)N[C@@H]1CCc2ccccc21)C(C)(C)C	=	20
CC(C)[C@H](NC(=O)[C@H](C)N)C(=O)N1CCC[C@H]1C(=O)N[C@@H](Cc1cccc2ccccc12)C(=O)N[C@@H](Cc1ccc(O)cc1)C(=O)O (H-AVP[1Nal]Y-OH)	=	90

---

target: E3 ubiquitin-protein ligase XIAP (Homo sapiens, UniProt P98170); assay: Relief of caspase inhibition in reconstituted assay (APAF-1, caspase-9, procaspase-3) with BIR3 domain of XIAP
Sequence (P98170 whole entry, the tested form may be a part): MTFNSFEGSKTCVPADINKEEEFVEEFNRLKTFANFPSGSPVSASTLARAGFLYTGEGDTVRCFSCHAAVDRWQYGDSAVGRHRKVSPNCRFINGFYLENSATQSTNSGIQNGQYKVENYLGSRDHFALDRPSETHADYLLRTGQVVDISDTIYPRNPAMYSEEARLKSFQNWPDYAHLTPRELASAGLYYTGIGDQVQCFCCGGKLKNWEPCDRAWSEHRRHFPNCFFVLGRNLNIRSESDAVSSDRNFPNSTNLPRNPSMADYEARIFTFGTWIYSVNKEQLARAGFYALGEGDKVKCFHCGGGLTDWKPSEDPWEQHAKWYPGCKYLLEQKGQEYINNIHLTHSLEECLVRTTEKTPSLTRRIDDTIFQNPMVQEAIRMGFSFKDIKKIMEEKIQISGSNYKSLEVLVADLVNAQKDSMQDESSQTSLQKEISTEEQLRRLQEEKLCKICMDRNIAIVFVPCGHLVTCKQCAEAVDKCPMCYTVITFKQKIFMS
Readout: EC50

                                   compound  readout  assay_result
0  CC(C(=O)N[C@H](C(=O)N1C[C@@H](Oc2ccccc2)C[C@H]1C(=O)NC1CCCc2ccccc21)C(C)(C)C)N(C)C (stereo partly specified)     EC50      > 100 µM
